System: Es-2
experimental protocol: Primary qHTS to identify gynecologic anti-cancer compounds using libraries of approved drugs and bioactive compounds (AID 1345084); also: % is scaled to controls: 0 for no effect and ±100 for the full control effect; nearly all actives have a fitted effect of over 55% in size
condition description: Gynecologic cancer cell panel viability, ATPlite luminescence, 48 h; series mostly up to 57.5 µM
Records with an inconclusive call do not appear. Calls of active or inactive are those of the source. Calls follow the shape of the dose curve; as a rule, active = well fitted cell-killing curve with a large enough effect; inconclusive = small, poorly fitted or top-dose-only effect, or effect the other way; inactive = flat fitted curve, though single readings scatter.
reported metric: activity change, negative = cytotoxicity

Before answering, review these 4 worked examples.
compound	value measured
COc1cc2c(cc1OC)[C@@]13CCN4CC5=CCO[C@H]6CC(=O)N2[C@H]1[C@H]6[C@H]5C[C@H]43	inactive
COC1CC(OC2CCC3(C)C(=CCC4C3CCC3(C)C(C(C)OC5OC(COC6OC(CO)C(O)C(O)C6O)C(O)C(O)C5O)CCC43O)C2)OC(C)C1OC1OC(C)C(O)C(OC)C1O (stereo not given)	-3.02% [at 11.6 µM] (inactive)
CC(C)(C)c1cc(C(C)(C)C)c2c(c1)C(O)(C(F)(F)F)C(=O)O2 (stereo not given)	inactive
C/C=C(\C)C(=O)O[C@H]1[C@H](OC(C)=O)[C@]2(CO)[C@H](O)[C@H](O)[C@]3(C)C(=CCC4[C@@]5(C)CC[C@H](O[C@@H]6O[C@H](C(=O)O)[C@@H](O)[C@H](O[C@@H]7OC[C@H](O)[C@H](O[C@@H]8OC[C@H](O)[C@H](O)[C@H]8O)[C@H]7O)[C@H]6O[C@@H]6O[C@H](CO)[C@@H](O)[C@H](O)[C@H]6O)C(C)(C)C5CC[C@]43C)[C@@H]2CC1(C)C (stereo not given in full)	-0.471% [at 6.55 µM] (inactive)

Turning now to a further compound:
Ask | Can you look up the measured activity change, negative = cytotoxicity of "C=C(CO)C(=O)O[C@H]1C/C(C)=C/CC/C(CO)=C/[C@H]2OC(=O)C(=C)[C@H]12" for me?
Reply | inactive
